The measurements presented in this section are drawn from patent US9163018B2.

System: M17 human neuroblastoma cells
Test: Cytotoxicity, M17 human neuroblastoma cells
Format: cell-based
Details: 1 μM test compound
Kindly supply the reported Cytotox (% viable) M17 cells at 1 μM values for the records listed here.
Give bare numbers, in %.

I need Cytotox (% viable) M17 cells at 1 μM for every entry listed below, if you could help.
1. CC(C)c1cnc2c(O)cccn2c1=O
2. CCn1cnc2c(O)c(I)ccc2c1=S
3. O=c1c2c(Cl)cc(I)c(O)c2ncn1-c1cccnc1

Result:
1. 99.7
2. 85.7
3. 112

Below are 4 molecules. Give each one its Cytotox (% viable) M17 cells at 1 μM.
1. O=C(O)CCCn1cnc2c(O)c(Cl)cc(Cl)c2c1=O
2. O=c1c2c(Cl)cc(Cl)c(O)c2ncn1C1=CCC=C1
3. O=c1c2c(Cl)cc(Cl)c(O)c2ncn1Cc1ccn2ccnc2c1
4. CCCCNC(=O)c1cnc2c(O)c(I)ccn2c1=O

Result:
[109.7, 125.7, 105.4, 85.3]
